System: CAKI-1
Assay: Cytotoxicity against human CAKI-1 cells assessed as cell viability at 10 uM incubated for 48 hrs by sulforhodamine B assay relative to control
Assay type: functional
Conditions: read-out: Activity
Dear colleague, classification is by viability at 10 µM, with ranges listed here: lo = under 60%, mid = from 60% up to 70%, hi = 70% and over

Sort into band: O=S(=O)(NCCCNc1nccc(-c2c(-c3cccc(F)c3)nc3sccn23)n1)c1ccc(F)cc1
lo

Sort into band: Cc1ccc(S(=O)(=O)NCCCNc2nccc(-c3c(-c4cccc(F)c4)nc4sccn34)n2)cc1
lo

Sort into band: O=S(=O)(NCCCNc1nccc(-c2c(-c3cccc(F)c3)nc3sccn23)n1)c1cccc2ccccc12
lo

Sort into band: O=S(=O)(NCCCNc1nccc(-c2c(-c3cccc(F)c3)nc3sccn23)n1)c1ccc(Cl)cc1
mid

Sort into band: O=C(NCCCNc1nccc(-c2c(-c3cccc(F)c3)nc3sccn23)n1)c1ccc(F)cc1
hi

Sort into band: O=S(=O)(NCCNc1nccc(-c2c(-c3cccc(F)c3)nc3sccn23)n1)c1cccc2ccccc12
hi

Sort into band: O=S(=O)(NCCNc1nccc(-c2c(-c3cccc(F)c3)nc3sccn23)n1)c1cccc(F)c1
lo

Sort into band: O=C(NCCCNc1nccc(-c2c(-c3cccc(F)c3)nc3sccn23)n1)c1ccc(C(F)(F)F)cc1
mid

Sort into band: O=C(NCCCNc1nccc(-c2c(-c3cccc(F)c3)nc3sccn23)n1)C1CCCCC1
lo

----------
This listing pairs compounds with measured viability at 10 µM.
Tested on: K562
Assay: Cytotoxicity against human K562 cells assessed as cell viability at 10 uM incubated for 48 hrs by sulforhodamine B assay relative to control
Type: functional
Settings: read-out: Activity
Provide only the numeric value, understood in %.

                                   compound       assayendpoint  measurednumber
0  O=S(=O)(NCCCNc1nccc(-c2c(-c3cccc(F)c3)nc3sccn23)n1)c1ccc(F)cc1  viability at 10 µM            41.6
1  O=S(=O)(NCCCNc1nccc(-c2c(-c3cccc(F)c3)nc3sccn23)n1)c1ccc(Br)cc1  viability at 10 µM            25.4
2  O=S(=O)(NCCCNc1nccc(-c2c(-c3cccc(F)c3)nc3sccn23)n1)c1cccc2ccccc12  viability at 10 µM            15.2
3  O=S(=O)(NCCNc1nccc(-c2c(-c3cccc(F)c3)nc3sccn23)n1)c1ccc(C(F)(F)F)cc1  viability at 10 µM            73.1

// compound O=C(NCCCNc1nccc(-c2c(-c3cccc(F)c3)nc3sccn23)n1)C1CCCCC1 , assay K562, viability at 10 µM value: 65.4

// compound O=S(=O)(NCCCNc1nccc(-c2c(-c3cccc(F)c3)nc3sccn23)n1)c1ccccc1 , assay K562, viability at 10 µM value: 34.3

// compound O=S(=O)(NCCNc1nccc(-c2c(-c3cccc(F)c3)nc3sccn23)n1)c1cccc2ccccc12 , assay K562, viability at 10 µM value: 78.3

----------
Tested on: ACHN
Assay: Cytotoxicity against human ACHN cells assessed as cell viability at 10 uM incubated for 48 hrs by sulforhodamine B assay relative to control
Assay type: functional
Details: read-out: Activity
Assign labels as follows, please: Y for viability at 10 µM below 60%; N for viability at 10 µM equal to or exceeding 60%.

These recorded examples may help you get a feel for the data.
In [3]: df
Out[3]:
                                   compound  measuredtarget  classname
0  O=S(=O)(NCCNc1nccc(-c2c(-c3cccc(F)c3)nc3sccn23)n1)c1cccc(F)c1            ACHN          Y
1  O=S(=O)(NCCCNc1nccc(-c2c(-c3cccc(F)c3)nc3sccn23)n1)c1ccc(C(F)(F)F)cc1            ACHN          N
2  O=C(NCCCNc1nccc(-c2c(-c3cccc(F)c3)nc3sccn23)n1)c1ccc(C(F)(F)F)cc1            ACHN          N
3  O=C(NCCNc1nccc(-c2c(-c3cccc(F)c3)nc3sccn23)n1)C1CCCCC1            ACHN          N
4  O=C(NCCNc1nccc(-c2c(-c3cccc(F)c3)nc3sccn23)n1)c1ccc(Cl)cc1            ACHN          Y
5  O=S(=O)(NCCCNc1nccc(-c2c(-c3cccc(F)c3)nc3sccn23)n1)c1ccccc1            ACHN          Y
6  O=C(NCCCNc1nccc(-c2c(-c3cccc(F)c3)nc3sccn23)n1)C1CCCCC1            ACHN          Y

We now examine a further molecule.
Determine if O=C(NCCCNc1nccc(-c2c(-c3cccc(F)c3)nc3sccn23)n1)c1ccc(F)cc1 shows viability at 10 µM strictly lower than 60%.
N

----------
Tested on: CCRF-CEM
Test: Cytotoxicity against human CCRF-CEM cells assessed as cell viability at 10 uM incubated for 48 hrs by sulforhodamine B assay relative to control
Format: functional
Settings: read-out: Activity
assayEndpoint: viability at 10 µM
Include the unit right after the number.

// compound O=C(NCCCNc1nccc(-c2c(-c3cccc(F)c3)nc3sccn23)n1)c1ccc(C(F)(F)F)cc1 , assay CCRF-CEM, viability at 10 µM value: 89.1%

// compound O=S(=O)(NCCCNc1nccc(-c2c(-c3cccc(F)c3)nc3sccn23)n1)c1ccc(F)cc1 , assay CCRF-CEM, viability at 10 µM value: 53.7%

----------
This listing pairs compounds with measured viability at 10 µM.
Tested on: SR
Assay: Cytotoxicity against human SR cells assessed as cell viability at 10 uM incubated for 48 hrs by sulforhodamine B assay relative to control
Assay type: functional
Conditions: read-out: Activity
Provide only the numeric value, understood in %.

                                   compound  measuredtarget       assayendpoint  measurednumber
0  O=S(=O)(NCCNc1nccc(-c2c(-c3cccc(F)c3)nc3sccn23)n1)c1cccc2ccccc12              SR  viability at 10 µM            88.1

Item: O=S(=O)(NCCCNc1nccc(-c2c(-c3cccc(F)c3)nc3sccn23)n1)c1cccc(F)c1 | viability at 10 µM: 64.9

Item: O=C(NCCCNc1nccc(-c2c(-c3cccc(F)c3)nc3sccn23)n1)C1CCCCC1 | viability at 10 µM: 70.2

Item: O=S(=O)(NCCNc1nccc(-c2c(-c3cccc(F)c3)nc3sccn23)n1)c1ccc(Br)cc1 | viability at 10 µM: 31.7

Item: O=S(=O)(NCCNc1nccc(-c2c(-c3cccc(F)c3)nc3sccn23)n1)c1ccc(Cl)cc1 | viability at 10 µM: 40.6

Item: Cc1ccc(S(=O)(=O)NCCCNc2nccc(-c3c(-c4cccc(F)c4)nc4sccn34)n2)cc1 | viability at 10 µM: 102

Item: O=S(=O)(NCCNc1nccc(-c2c(-c3cccc(F)c3)nc3sccn23)n1)c1ccc(F)cc1 | viability at 10 µM: 38

Item: O=S(=O)(NCCCNc1nccc(-c2c(-c3cccc(F)c3)nc3sccn23)n1)c1ccc(Cl)cc1 | viability at 10 µM: 92.9

----------
This listing pairs compounds with measured viability at 10 µM.
System: CCRF-CEM
Assay: Cytotoxicity against human CCRF-CEM cells assessed as cell viability at 10 uM incubated for 48 hrs by sulforhodamine B assay relative to control
Type: functional
Conditions: read-out: Activity

// solved cases for viability at 10 µM follow
In [3]: df
Out[3]:
                                   compound       assayendpoint  result
0  O=S(=O)(NCCNc1nccc(-c2c(-c3cccc(F)c3)nc3sccn23)n1)c1ccccc1  viability at 10 µM   33.6%
1  O=C(NCCNc1nccc(-c2c(-c3cccc(F)c3)nc3sccn23)n1)c1c(F)cccc1F  viability at 10 µM   42.8%

Let's switch to this compound now.
Item: O=S(=O)(NCCCNc1nccc(-c2c(-c3cccc(F)c3)nc3sccn23)n1)c1ccc(C(F)(F)F)cc1 | viability at 10 µM: 89.4%

----------
Test system: SR
Assay: Cytotoxicity against human SR cells assessed as cell viability at 10 uM incubated for 48 hrs by sulforhodamine B assay relative to control
Assay type: functional
Details: read-out: Activity
assayEndpoint: viability at 10 µM (%)
Provide only the numeric value, understood in %.

Item: O=C(NCCNc1nccc(-c2c(-c3cccc(F)c3)nc3sccn23)n1)C1CCCCC1 | viability at 10 µM: 91

Item: O=C(NCCNc1nccc(-c2c(-c3cccc(F)c3)nc3sccn23)n1)c1ccc(Cl)cc1 | viability at 10 µM: 46.5

Item: O=S(=O)(NCCNc1nccc(-c2c(-c3cccc(F)c3)nc3sccn23)n1)c1cccc(F)c1 | viability at 10 µM: 45.5

Item: O=S(=O)(NCCCNc1nccc(-c2c(-c3cccc(F)c3)nc3sccn23)n1)c1ccc(C(F)(F)F)cc1 | viability at 10 µM: 109

Each recorded value in this set is attributed to ChEMBL document CHEMBL4665642.
